Target: recombinant SARS-CoV-2 Main protease (Mpro) (Severe acute respiratory syndrome coronavirus 2 (2019-nCoV) (SARS-CoV-2), UniProt P0DTD1)
Assay: Cov Mpro Biochemical IC50 Assay
Details: recombinant SARS-CoV-2 Mpro, fluorogenic peptide substrate; read-out: MPro IC50
Give measured IC50 for each item. Keep answers brief.
Numbers only, in nM.

The cases that follow already have their IC50 on record.
CC(C)COc1ccc(Cl)c(-c2ccc3c(=O)n(-c4cncc5ccccc45)c(=O)[nH]c3c2)c1 :: 3990
COc1ccc(Cl)c(-c2ccc3c(=O)n(-c4cncc5ccccc45)c(=O)[nH]c3c2)c1 :: 33.9
O=c1[nH]c2cc(-c3csc4ccccc34)ccc2c(=O)n1-c1cncc2ccccc12 :: 7920
NC(=O)c1ccccc1-c1ccc2c(=O)n(-c3cncc4ccccc34)c(=O)[nH]c2c1 :: 2010
Cc1ccccc1-c1cnc2c(=O)n(-c3cncc4ccccc34)c(=O)[nH]c2c1 :: 216

Need IC50 for each of these compounds.
1. Cc1ccncc1-n1c(=O)[nH]c2cc(-c3ccccc3Cl)ccc2c1=O
2. CC(C)Cn1cc(-c2cccc(Cl)c2-c2ccc3c(=O)n(-c4cncc5ccccc45)c(=O)[nH]c3c2)c(C(F)(F)F)n1
3. O=c1[nH]c2cc(-c3c(Cl)cccc3-c3ccnnc3)sc2c(=O)n1-c1cncc2ccccc12
4. O=c1[nH]c2cc(-c3ccccc3-c3ccccc3Cl)ccc2c(=O)n1-c1cncc2ccccc12
5. COc1ccc(Cl)c(-c2cc(F)c3c(=O)n(-c4cncc5ccccc45)c(=O)[nH]c3c2)c1
6. O=c1[nH]c2cc(-c3ccccc3Cl)cc(F)c2c(=O)n1-c1cncc2ccccc12

Response:
708
110
5.19
470
65.8
153

Need IC50 for each of these compounds.
1. O=c1[nH]c2cc(-c3cc4c(cc3Cl)OC(F)(F)O4)sc2c(=O)n1-c1cncc2ccccc12
2. N#Cc1cccc(-c2cccc(Cl)c2-c2ccc3c(=O)n(-c4cncc5ccccc45)c(=O)[nH]c3c2)n1
3. N#Cc1ncccc1-c1ccc2c(=O)n(-c3cncc4ccccc34)c(=O)[nH]c2c1
4. COc1ccc(Cl)c(-c2ccc3c(=O)n(-c4cncc(C)c4OCC(F)(F)F)c(=O)[nH]c3c2)c1
5. COc1cc(-c2ccc3c(=O)n(-c4cncc5ccccc45)c(=O)[nH]c3c2)c(C#N)cc1F

Response:
4760
230
904
345
10.7
